The measured values listed here are drawn from the supplement of paper PMC10567573.

Kindly state protein stability index for each of the entries shown.
B1: MNAT1 (parent)
chain: SLREYNDFLEEVEEIVFNLTNNVD

variants of: B1; assay: protein stability index of a GFP-peptide fusion (GPS, HEK-293T) (PSI 1-6); higher = more stable; conditions: c terminus: a fixed tail appended;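 note: lentivirally expressed fusions sorted by FACS into six bins by GFP to DsRed ratio, PSI derived from sequencing read proportions per bin multiplied by bin number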
Numbers only.

Mutation Label	Property Name	Numeric Readout
L19M	protein stability index	2.89

Provide protein stability index values for the following items, in order.
1. E10N
2. L19I

// result
1.55
1.84

# batch: return protein stability index for each of the 3 variants below
1. E14Y
2. N22F
3. S1R

// result
1. 2.6
2. 2.47
3. 2.21

Lab note: each variant below needs its protein stability index filled in.
1. Y5G
2. R3W
3. E13R
4. I15P
5. L19T
6. N21H
7. Y5F
8. I15T

// result
3.91
1.62
1.87
4.71
3.6
1.76
1.58
3.77

Hey, quick one: what's protein stability index for each of these?
1. I15S
2. E10C
3. L9Y
4. V12D
5. V16A

// result
[3.89, 2.74, 3.59, 4.97, 3.36]

Give protein stability index for each listed item.
1. E13D
2. E11H
3. F8V

// result
2.87
2.07
3.63

Give measured protein stability index for every item shown.
1. T20H
2. N21K
3. V12M
4. N6H
5. E4C

// result
2.25
1.45
1.74
1.8
1.95

// batch mode: one protein stability index value per listed entry
1. L9T
2. E10D

// result
1. 4.07
2. 1.95

Return reported protein stability index values for all items listed beneath this line.
1. D24Q
2. I15W
3. Y5E
4. E11P
5. S1Q
6. E10L

// result
1: 1.73; 2: 2.16; 3: 4.35; 4: 3.1; 5: 2.81; 6: 1.52
